# STUDY SYSTEM: Peptide 5: Biotin-…-[Tyr(PC)]-acid
# Sequence (peptide, as listed by the source): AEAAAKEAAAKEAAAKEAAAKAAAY
# ASSAY SUMMARY: scFv ELISA
PROPERTY MEASURED: OD450 (OD450)
Dear colleague, please return just the value in OD450, with no unit written.

Req: Name the recorded OD450 for PcOxP_DB02_A12 (scFv, V domains shown, scFv in periplasmic extract) VH: EVQLLESGGGLVQPGGSLRLSCAASGFTFSDDYMEWVRQAPGKGLEWVAASRNKANDYTTEYADSVKGRFTISRDNSKNTLYLQMNSLRAEDTAVYYCARDYQGSSYWYFDVWGQGTLVTVSS VL: DIQMTQSPSSLSASVGDRVTITCTASESLYSSKHKVHYLAWYQQKPGKAPKLLIYGAFNRYTGVPSRFSGSGSGTDFTLTISSLQPEDFATYYCAQFYTYPLTFGGGTKVEIK .
Resp: 0.27

Req: Next binder up: PcOxP_DB03_E11 (scFv, V domains shown, scFv in periplasmic extract) VH: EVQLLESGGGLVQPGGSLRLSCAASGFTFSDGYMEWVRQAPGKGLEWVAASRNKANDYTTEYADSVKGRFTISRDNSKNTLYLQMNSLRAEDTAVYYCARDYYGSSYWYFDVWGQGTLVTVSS VL: DIVMTQSPDSLAVSLGERATINCKSSESLYSSKNKVHYLAWYQQKPGQPPKLLIYGASNRYIGVPDRFSGSGSGTDFTLTISSLQAEDVAVYYCAQFYHYPLTFGGGTKVEIK
Resp: 1.58

Req: Would you kindly repeat that for PcOxP_DB01_H08 (scFv, V domains shown, scFv in periplasmic extract) VH: EVQLLESGGGLVQPGGSLRLSCAASGFTHSDFYMEWVRQAPGKGLEWVAASRNKANDYTTEYADSVKGRFTISRDNSKNTLYLQMNSLRAEDTAVYYCARDYYGSSYWYFDVWGQGTLVTVSS VL: DIQMTQSPSSLSASVGDRVTITCRASESISSSKHKHYLAWYQQKPGKAPKLLIYGASNRYIGVPSRFSGSGSGTDFTLTISSLQPEDFATYYCAQFYVYPLTFGGGTKVEIK ?
Resp: 0.85

Req: Please answer likewise for PcOxP_DB03_A05 (scFv, V domains shown, scFv in periplasmic extract) VH: EVQLLESGGGLVQPGGSLRLSCAASGFTFSEFYMEWVRQAPGKGLEWVAASRNKANDYTTEYADSVKGRFTISRDNSKNTLYLQMNSLRAEDTAVYYCARDYYGSSYWYFDVWGQGTLVTVSS VL: DIVMTQSPDSLAVSLGERATINCTASESLYSSKHKVHYLAWYQQKPGQPPKLLIYGASNRAIGVPDRFSGSGSGTDFTLTISSLQAEDVAVYYCAQFYFYPLTFGGGTKVEIK
Resp: 0.78

Req: Also need PcOxP_DB04_C08 (scFv, V domains shown, scFv in periplasmic extract) VH: EVQLLESGGGLVQPGGSLRLSCAASGETFSDFYMEWVRQAPGKGLEWVAASRNKANDYTTEYADSVKGRFTISRDNSKNTLYLQMNSLRAEDTAVYYCARDYYGSSYWYFDVWGQGTLVTVSS VL: DIQMTQSPSSLSASVGDRVTITCTASESLYSSKHGVHYLAWYQQKPGKAPKLLIYGASNRYIGVPSRFSGSGSGTDFTLTISSLQPEDFATYYCAQFYQYPLTFGGGTKVEIK , thanks.
Resp: 1.07
